Listed below: MBC values for each entry.
# Test system: Staphylococcus aureus
# procedure summary: Antibacterial activity against methicillin-resistant Staphylococcus aureus ATCC 33591 by NCCLS method
# Type: functional, organism-based
Just the number in µg/mL, nothing appended.

* C[n+]1cccc2c1c1ccc(Cl)cc1n2CCCCCC1CCCCC1.[I-] | 2.5
* C[n+]1cccc2c1c1cc(C(F)(F)F)ccc1n2CCCCCC1CCCCC1.[I-] | 10
* Cc1ccccc1N(CCCCCC1CCCCC1)c1ccc[n+](C)c1.[I-] | 10
* CCc1ccc(N(CCCCCC2CCCCC2)c2ccc[n+](C)c2)cc1.[I-] | 2.5
* COc1ccc(N(CCCCCC2CCCCC2)c2ccc[n+](C)c2)cc1.[I-] | 10

The measured MBC associated with C[n+]1cccc2c1c1cccc(Cl)c1n2CCCCCC1CCCCC1.[I-] reads 5

The measured MBC associated with C[n+]1cccc2c1c1cc(F)ccc1n2CCCCCC1CCCCC1.[I-] reads 20

The measured MBC associated with C[n+]1cccc(N(CCCCCC2CCCCC2)c2cccc(C(F)(F)F)c2)c1.[I-] reads 5

The measured MBC associated with C[n+]1cccc(N(CCCCCC2CCCCC2)c2ccccc2C(F)(F)F)c1.[I-] reads 5

The measured MBC associated with C[n+]1cccc(N(CCCCCC2CCCCC2)c2ccc(C(F)(F)F)cc2)c1.[I-] reads 2.5

The measured MBC associated with Cc1ccc2c(c1)c1c(ccc[n+]1C)n2CCCCCC1CCCCC1.[I-] reads 10

The measured MBC associated with O=C(O)c1cn(C2CC2)c2cc(N3CCNCC3)c(F)cc2c1=O reads 0.5

The measured MBC associated with C[n+]1cccc2c1c1cc(Cl)ccc1n2CCCCCC1CCCCC1.[I-] reads 10

The measured MBC associated with Cc1ccc(N(CCCCCC2CCCCC2)c2ccc[n+](C)c2)cc1.[I-] reads 2.5

The measured MBC associated with C[n+]1cccc(N(CCCCCC2CCCCC2)c2ccc(C#N)cc2)c1.[I-] reads 20

The measured MBC associated with C[n+]1cccc(N(CCCCCC2CCCCC2)c2ccc(F)cc2)c1.[I-] reads 20

The measured MBC associated with C[n+]1cccc2c1c1ccccc1n2CCCCCC1CCCCC1.[I-] reads 5

====

# Tested on: Mycobacterium intracellulare
# procedure summary: Antibacterial activity against Mycobacterium intracellular ATCC 23068 by alamar blue method
# Type: functional, organism-based
Listed below: MBC values for each entry.
Just the number in µg/mL, nothing appended.

Example molecules with recorded MBC:
- COc1ccc2c(c1)c1c(ccc[n+]1C)n2CCCCCC1CCCCC1.[I-]: 2.5
- C[n+]1cccc2c1c1cccc(Cl)c1n2CCCCCC1CCCCC1.[I-]: 5
- C[n+]1cccc(N(CCCCCC2CCCCC2)c2ccccc2Cl)c1.[I-]: 5

The measured MBC associated with C[n+]1cccc(N(CCCCCC2CCCCC2)c2ccccc2C(F)(F)F)c1.[I-] reads 2.5

The measured MBC associated with C[n+]1cccc2c1c1ccc(Cl)cc1n2CCCCCC1CCCCC1.[I-] reads 5

The measured MBC associated with C[n+]1cccc2c1c1cc(Cl)ccc1n2CCCCCC1CCCCC1.[I-] reads 2.5

The measured MBC associated with Cc1ccc(N(CCCCCC2CCCCC2)c2ccc[n+](C)c2)cc1.[I-] reads 2.5

The measured MBC associated with C[n+]1cccc(N(CCCCCC2CCCCC2)c2cccc(C#N)c2)c1.[I-] reads 10

The measured MBC associated with C[n+]1cccc(N(CCCCCC2CCCCC2)c2ccccc2)c1.[I-] reads 2.5

The measured MBC associated with COc1ccccc1N(CCCCCC1CCCCC1)c1ccc[n+](C)c1.[I-] reads 2.5

The measured MBC associated with CSc1ccc2c(c1)c1c(ccc[n+]1C)n2CCCCCC1CCCCC1.[I-] reads 2.5

====

# Test system: Staphylococcus aureus
# procedure summary: Antibacterial activity against methicillin-resistant Staphylococcus aureus ATCC 33591 by NCCLS method
# Assay type: functional, organism-based
endpoint: IC50 (µg/mL)
Just the number in µg/mL, nothing appended.

- COc1ccccc1N(CCCCCC1CCCCC1)c1ccc[n+](C)c1.[I-]: 1.2
- C[n+]1cccc2c1c1ccccc1n2CCCCCC1CCCCC1.[I-]: 1.5
- CSc1ccc(N(CCCCCC2CCCCC2)c2ccc[n+](C)c2)cc1.[I-]: 1

Now consider a different molecule.
The measured IC50 associated with C[n+]1cccc(N(CCCCCC2CCCCC2)c2ccccc2C(F)(F)F)c1.[I-] reads 0.6

====

# Tested on: Candida albicans
# procedure summary: Antifungal activity against Candida albicans ATCC 90028 by NCCLS method
# Format: functional, organism-based
Listed below: IC50 values for each entry.
Just the number in µg/mL, nothing appended.

Example molecules with recorded IC50:
- C[n+]1cccc2c1c1cc(C#N)ccc1n2CCCCCC1CCCCC1.[I-]: 19
- CSc1ccc2c(c1)c1c(ccc[n+]1C)n2CCCCCC1CCCCC1.[I-]: 2.1
- C[n+]1cccc2c1c1cc(C(F)(F)F)ccc1n2CCCCCC1CCCCC1.[I-]: 5.8
- COc1ccc2c(c1)c1c(ccc[n+]1C)n2CCCCCC1CCCCC1.[I-]: 7.4
- C[n+]1cccc2c1c1cccc(Cl)c1n2CCCCCC1CCCCC1.[I-]: 2.5

Note to self: IC50 of C[n+]1cccc2c1c1cc(Cl)ccc1n2CCCCCC1CCCCC1.[I-] with Candida albicans was 2

Note to self: IC50 of C[n+]1cccc2c1c1ccccc1n2CCCCCC1CCCCC1.[I-] with Candida albicans was 3

====

Listed below: MBC values for each entry.
# System: Staphylococcus aureus
# procedure summary: Antibacterial activity against methicillin-resistant Staphylococcus aureus ATCC 33591 by NCCLS method
# Format: functional, organism-based
Just the number in µg/mL, nothing appended.

Example molecules with recorded MBC:
- CSc1ccc(N(CCCCCC2CCCCC2)c2ccc[n+](C)c2)cc1.[I-]: 2.5
- COc1ccccc1N(CCCCCC1CCCCC1)c1ccc[n+](C)c1.[I-]: 20
- C[n+]1cccc2c1c1cc(C#N)ccc1n2CCCCCC1CCCCC1.[I-]: 20

Note to self: MBC of CSc1ccc2c(c1)c1c(ccc[n+]1C)n2CCCCCC1CCCCC1.[I-] with Staphylococcus aureus was 10

The origin of these recorded values is ChEMBL document CHEMBL1781968.
